Tested on: RARa:RXR (NR concentration 270 nM, RXRa partner concentration 90 nM)
Method Summary: PBM binding z-score (relative to random genomic background probes); higher = stronger binding; sequences stand for … in GC…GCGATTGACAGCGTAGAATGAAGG
Rule: PBM binding z-score of 2 or more gives met; anything lower gives not met.

Examples with answers:
[[record]]
sequence_chain = "CTCCCAAGGTGAACAAGGTCGTTGATTACTATTC"
group_label = "met"

[[record]]
sequence_chain = "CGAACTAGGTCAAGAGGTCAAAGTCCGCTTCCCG"
group_label = "met"

[[record]]
sequence_chain = "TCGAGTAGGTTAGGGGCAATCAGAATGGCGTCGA"
group_label = "not met"

[[record]]
sequence_chain = "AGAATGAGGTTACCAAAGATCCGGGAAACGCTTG"
group_label = "not met"

[[record]]
sequence_chain = "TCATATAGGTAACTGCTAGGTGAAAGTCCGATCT"
group_label = "not met"


Please tell me: is the sequence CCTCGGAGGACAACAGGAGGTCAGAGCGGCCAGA at or over 2 in terms of PBM binding z-score?
met

Is the recorded value of PBM binding z-score equal to or greater than 2 for this sequence? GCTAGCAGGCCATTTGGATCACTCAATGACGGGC
not met
